# Test system: PBS1 (synthetic)
# assay: EMSA
measure name: pKd
// returns pKd (minus log10 of molar concentration), number only

Prompt: Dear colleague, I am looking for the recorded pKd of the following sequence: AAATCTCTAGCAGTGGCG [HIV-1 PBS hairpin, PBS1 site]
Response: 9.10

Data credit: patent US20070213269
